assay: Acute Toxicity; conditions: rat, in vivo; rats, p.o.; seven days after oral administration
# LD50 at 168 h annotations
Only the number, expressed in mg/kg, is required.

COc1ccc2c(c1)c(CC(=O)O)c(C)n2C(=O)c1ccc(Cl)cc1 [Indomethacin, reference compound] | 29

Incoming: Find the measured LD50 at 168 h of CC(O)C=Cc1ccc2c(c1)Cc1ccccc1-2 (stereo not shown) and report it.
Outgoing: 1680

* * *

test: Action for formation of ulcer; set-up: species or system rat (male, SD strain); conditions: rat, in vivo, po; rats, p.o.; 24 h fasted, stomach observed 24 h after dosing; read-out: UD50 (50% ulcer-forming dose)
measure-name: TD50 at 24 h

Incoming: Find the measured TD50 at 24 h of COc1ccc2c(c1)c(CC(=O)O)c(C)n2C(=O)c1ccc(Cl)cc1 [Indomethacin, reference compound] and report it.
Outgoing: 4 mg/kg

* * *

assay: Action for formation of ulcer; parameters: species or system rat (male, SD strain); settings: rat, in vivo, po
# TD50 at 24 h annotations
Only the number, expressed in mg/kg, is required.

Consider the reported TD50 at 24 h for these molecules:
CC(O)C=Cc1ccc2c(c1)Cc1ccccc1-2 (stereo not drawn) [Example 2, 4-(2-fluorenyl)-3-buten-2-ol] | 90
CC(O)CCc1ccc2c(c1)Cc1ccccc1-2 (stereo not drawn) [Example 9, 4-(2-Fluorenyl)-butan-2-ol] | 68.4

Now look at this one.
Incoming: Find the measured TD50 at 24 h of CC(=O)CCc1ccc2c(c1)Cc1ccccc1-2 [Example 3, 4-(2-fluorenyl)-butan-2-one] and report it.
Outgoing: 182
